B1: KRT13 (parent)
chain: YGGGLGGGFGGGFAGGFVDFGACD

Variants of: B1
Test: protein stability index of a GFP-peptide fusion (GPS, HEK-293T) (PSI 1-6); higher = more stable;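 note: lentivirally expressed fusions sorted by FACS into six bins by GFP to DsRed ratio, PSI derived from sequencing read proportions per bin multiplied by bin number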
Details: c terminus: a fixed tail appended
Parameter protein stability index: see the listing below.
Reply with just the number.

# Mutant code, protein stability index
records = [
    ("F9C", 1.79),
    ("G6T", 2.19),
    ("G16T", 2.02),
]

I would be grateful if you could share the reported protein stability index for `L5I` . 2.27

I would be grateful if you could share the reported protein stability index for `L5E` . 2.51

I would be grateful if you could share the reported protein stability index for `C23N` . 1.76

I would be grateful if you could share the reported protein stability index for `Y1D` . 3.61

I would be grateful if you could share the reported protein stability index for `G3P` . 2.03

I would be grateful if you could share the reported protein stability index for `D24V` . 2.45

FYI, the data here is from the supplement of paper PMC10567573.
